Kindly supply the reported pKd values for the records listed here.
Target: T1, SNTA1, Q13424
T1 sequence (Q13424 82-180, limits assumed, looked up): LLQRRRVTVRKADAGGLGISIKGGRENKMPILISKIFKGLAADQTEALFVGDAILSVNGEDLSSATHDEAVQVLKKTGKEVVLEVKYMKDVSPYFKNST
Assay: holdup assay
Parameters: key: below the threshold = too weak to quantify, mostly under pKd 3.1 to 4
Settings: plain residues with an end cap or a label only (N-terminal biotin on a linker: ttds)
One number for each entry.

ERKLSSESQV [LRP4, O75096] ... 3.78
STLTIFETAL [ABCC4, O15439] ... 4.75
TVASEKESVM [SLC1A5, Q15758] ... 3.81
VLRLQSETSV [VANGL1, Q8TAA9] ... 4.52
IDNDTESTAL [ARHGAP17, Q68EM7] ... 3.73
SRPQRTQTQV [HPV67-E6, A4U7F2] ... 3.94

Value sought for every listed binder: pKd.
1. QSARYRDTEL [TJP2, Q9UDY2]
2. SSRTRRETQL [HPV16-E6, P03126]
3. SVWLRKETRV [CYSLTR2, Q9NS75]
4. IYVPEAQTRL [DLGAP4, Q9Y2H0]
5. GQDSREETQL [KCNT2, Q6UVM3]

A)
[4.38, 4.75, 5.41, 3.98, 4.06]
